- Tested on: SNB-19 CNS
- Measurement Notes: NCI tumour cell line growth inhibition, 48 h
Hi there, I'd appreciate the recorded TGI for every entry that follows.

{"Compound": "CC1=C2CC3=C(C)C(=O)O[C@H]3C[C@@H](C)[C@@H]2CC1", "Target Of Assay": "SNB-19 CNS", "Test Readout": "TGI", "Value Reported": "> 100 µM"}
{"Compound": "COc1cc(OC)c(-c2oc3ccccc3c(=O)c2O)c(OC)c1", "Target Of Assay": "SNB-19 CNS", "Test Readout": "TGI", "Value Reported": "> 100 µM"}
{"Compound": "CN(C)CCCn1c2c(c3ccc([N+](=O)[O-])cc3c1=O)C(=O)c1ccccc1-2", "Target Of Assay": "SNB-19 CNS", "Test Readout": "TGI", "Value Reported": "> 100 µM"}
{"Compound": "COc1ccc(C2Oc3cc(OC)c(O)cc3[C@@H]2C)cc1 (some centres not stated)", "Target Of Assay": "SNB-19 CNS", "Test Readout": "TGI", "Value Reported": "19.5 µM"}
{"Compound": "Cc1ccc(S(=O)(=O)c2ccccn2)cc1", "Target Of Assay": "SNB-19 CNS", "Test Readout": "TGI", "Value Reported": "> 100 µM"}

Need TGI for each of these compounds.
1. COCN1C(=O)[C@@H]2C[C@@H](OC/C=C/CBr)CN2C(=O)c2ccccc21
2. CC(C)CCC[C@@H](C)[C@H]1CC[C@H]2[C@@H]3CC=C4CC(OCCCCN(O)CCCSC5OC(CO)C(O)C(O)C5O)CC[C@]4(C)[C@H]3CC[C@]12C (some centres not stated)
3. COc1cc(/C=C/C(=O)C(C)(C)C)cc(OC)c1OC

### Response
["67.2 µM", "> 100 µM", "> 100 µM"]
